Target: Adenosine receptor A1 (Rattus norvegicus)
Sequence (P25099 whole entry): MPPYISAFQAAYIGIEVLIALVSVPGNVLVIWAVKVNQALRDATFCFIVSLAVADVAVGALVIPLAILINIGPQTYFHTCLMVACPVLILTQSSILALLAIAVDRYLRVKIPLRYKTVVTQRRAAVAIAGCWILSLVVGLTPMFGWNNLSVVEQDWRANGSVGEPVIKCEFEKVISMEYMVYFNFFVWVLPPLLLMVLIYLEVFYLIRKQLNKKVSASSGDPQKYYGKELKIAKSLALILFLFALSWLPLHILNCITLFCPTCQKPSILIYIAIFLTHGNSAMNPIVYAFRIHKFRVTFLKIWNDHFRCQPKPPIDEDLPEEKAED
Test: Binding affinity at Adenosine A1 receptor in rat brain cortical membrane using [3H]N6-R-phenylisopropyladenosine (R-PIA) as radioligand
Assay type: cell membranes
Entries are sorted into classes by Ki as follows: lowest: < 4 µM; middle: ≥ 4 µM and < 10 µM; highest: ≥ 10 µM

* CCn1c(=O)[nH]c2[nH]c(-c3ccccc3)nc2c1=O | lowest
* O=c1[nH]c2nc[nH]c2c(=O)n1CCc1ccccc1 | highest
* CCCCn1cnc2[nH]c(=O)[nH]c(=O)c21 | highest
* CCCn1c(=O)c2nc[nH]c2n(C)c1=O | middle
* C#CCn1c(=O)[nH]c2[nH]cnc2c1=O | highest
* C#CCn1c(=O)c2c(nc(-c3ccccc3)n2C)n(C)c1=O | middle
* C#CCn1c(=O)c2[nH]cnc2n(C)c1=O | lowest
* CCCn1c(=O)[nH]c2ncn(C)c2c1=O | highest
* C=CCn1c(=O)[nH]c2[nH]cnc2c1=O | middle
* Cn1c(=O)[nH]c2[nH]cnc2c1=O | highest
* C#CCn1c(=O)[nH]c2[nH]c(-c3ccccc3)nc2c1=O | lowest
* CCCn1c(=O)[nH]c2nc(-c3ccc(S(=O)(=O)O)cc3)[nH]c2c1=O | lowest
* O=c1[nH]c2nc(-c3ccccc3)[nH]c2c(=O)n1CCc1ccccc1 | lowest
* Cn1c(=O)[nH]c2[nH]c(-c3ccccc3)nc2c1=O | lowest
* CCCn1cnc2[nH]c(=O)[nH]c(=O)c21 | highest
* CCCn1c(=O)[nH]c2[nH]cnc2c1=O | highest
* C#CCn1c(=O)[nH]c2ncn(C)c2c1=O | highest
* C=CCn1c(=O)c2[nH]c(-c3ccccc3)nc2n(C)c1=O | lowest
* O=c1[nH]c2[nH]cnc2c(=O)n1Cc1ccccc1 | lowest
* CCCn1c(=O)n(C)c(=O)c2[nH]cnc21 | middle
* Cn1cnc2[nH]c(=O)[nH]c(=O)c21 | highest
* Cn1c(=O)[nH]c2ncn(C)c2c1=O | highest
* O=c1[nH]c2[nH]cnc2c(=O)n1C1CCCC1 | highest
* CCn1c(=O)c2nc[nH]c2n(CC)c1=O | lowest

###

Biological target: Adenosine receptor A1 (Rattus norvegicus)
Assay: Binding affinity at Adenosine A1 receptor in rat brain cortical membrane using [3H]N6-R-phenylisopropyladenosine (R-PIA) as radioligand
Type: cell membranes
Threshold-based label: Ki under 0.2 µM gives MET, Ki not under 0.2 µM gives NOT MET.

* C#CCn1c(=O)[nH]c2[nH]c(C3CCCCC3)nc2c1=O | MET
* CCCn1c(=O)[nH]c2[nH]c(C3CCCC3)nc2c1=O | MET
* C=CCn1cnc2c1c(=O)[nH]c(=O)n2CC=C | NOT MET
* O=c1[nH]c2[nH]cnc2c(=O)n1Cc1cccc(Cl)c1 | NOT MET
* CC(=O)Cn1c(=O)[nH]c2[nH]c(C3CCCC3)nc2c1=O | NOT MET
* Cn1c(=O)[nH]c(=O)c2[nH]c(-c3ccccc3)nc21 | NOT MET

###

# Ki annotations
Target: Adenosine A2 receptor (Rattus norvegicus, UniProt P29276+P30543)
Assay: Binding affinity against Adenosine A2 receptor in rat striatal membranes using [3H]5'-(N-ethylcarboxamido)-adenosine (NECA) as the ligand
Format: cell membranes, Striatum, Membrane
experimental_endpoint: Ki (µM)

- CC(C)n1c(=O)n(C)c(=O)c2[nH]cnc21: 16
- CCn1c(=O)[nH]c2[nH]c(-c3ccccc3)nc2c1=O: 1.8
- CCn1c(=O)c2nc[nH]c2n(C)c1=O: 23
- CCCn1c(=O)[nH]c2[nH]c(-c3ccccc3)nc2c1=O: 1.9

###

Biological target: Adenosine A2 receptor (Rattus norvegicus, UniProt P29276+P30543)
Test: Binding affinity against Adenosine A2 receptor in rat striatal membranes using [3H]5'-(N-ethylcarboxamido)-adenosine (NECA) as the ligand
Assay type: cell membranes, Striatum, Membrane
Threshold-based label: Ki under 20 µM gives label 1, Ki not under 20 µM gives label 0.

• Cn1c(=O)[nH]c2[nH]c(-c3ccccc3)nc2c1=O = label 1
• C#CCn1c(=O)[nH]c2[nH]c(-c3ccccc3)nc2c1=O = label 1
• CCCn1c(=O)[nH]c2ncn(C)c2c1=O = label 0
• Cn1c(=O)[nH]c2[nH]cnc2c1=O [1-METHYLXANTHINE] = label 0
• C#CCn1c(=O)c2c(nc(-c3ccccc3)n2C)n(C)c1=O = label 1
• O=c1[nH]c2[nH]cnc2c(=O)n1Cc1ccccc1 = label 0
• CCCCn1c(=O)[nH]c2[nH]cnc2c1=O = label 0
• Cn1c(=O)[nH]c(=O)c2[nH]cnc21 [3-METHYLXANTHINE] = label 0
• CCCn1c(=O)[nH]c(=O)c2[nH]c(C3CCCCC3)nc21 = label 0
• CCCn1c(=O)[nH]c2[nH]cnc2c1=O = label 0
• CCCCn1cnc2[nH]c(=O)[nH]c(=O)c21 = label 0
• CCCn1c(=O)c2nc[nH]c2n(C)c1=O = label 0
• CC(C)Cn1c(=O)n(C)c(=O)c2nc[nH]c21 [ISOBUTYLMETHYLXANTHINE] = label 1
• CCCn1c(=O)[nH]c(=O)c2[nH]c(-c3ccccc3)nc21 = label 0
• CC(C)CCn1c(=O)c2nc[nH]c2n(CC(C)C)c1=O = label 1
• C=CCn1c(=O)c2[nH]c(-c3ccccc3)nc2n(C)c1=O = label 1
• C#CCn1c(=O)c2[nH]cnc2n(C)c1=O = label 1
• O=c1[nH]c2[nH]cnc2c(=O)n1Cc1cccc(Cl)c1 = label 0
• Cn1cnc2[nH]c(=O)[nH]c(=O)c21 [7-METHYLXANTHINE] = label 0
• CCn1c(=O)c2nc[nH]c2n(CC)c1=O = label 0
